assay: In vivo pharmacokinetic studies in rats; design: species or system SD rats; details: SD, rat, plasma, po, 10 mg/kg, rats, PO 10 mg/kg repeat dose, Day 1, Mean of 3 animals; read-out: AUClast
RESULT_TYPE: AUC(0-t) (ng·h/mL)
Give the value, in units of ng·h/mL, as a plain number.

[ask] What value of AUC(0-t) has been reported for the following compound? CC(C)(N)c1csc(C(=O)c2c[nH]c3cc(F)ccc23)n1 [ARI-226]
[reply] 831

====

test: In vivo pharmacokinetic studies in mice; parameters: species or system Balb/C mice; details: mouse, plasma; Balb/C mice, single dose PO 10 mg/kg; read-out: AUCinf
RESULT_TYPE: AUC(0-inf) (ng·h/mL)
Lab book: enter the figure in ng·h/mL, no units written.

[ask] Consider the molecule shown here: CC[C@H](N)c1csc(C(=O)c2c[nH]c3cc(F)ccc23)n1 [ARI-186] What is its recorded AUC(0-inf)?
[reply] 17000
